Each recorded value in this set is attributed to patent US20110009628A1.

- EXPERIMENT: in vivo
- Set-up: species or system Golden Syrian hamsters
- CONDITIONS: male, Golden Syrian, hamster, po, 15 mg/kg
REPORTED_METRIC: AUC(0-t) (ng·h/mL)
Give the value in ng·h/mL but do not write ng·h/mL after it.

Per the records, this compound ( COc1cc2c(cc1OC)C1Cc3ccc(OC)c(OS(=O)(=O)c4cccc(F)c4)c3CN1CC2 (single isomer, unassigned) ) has AUC(0-t) equal to 889

---

- EXPERIMENT: in vivo
- Design: species or system Golden Syrian hamsters
- CONDITIONS: male, Golden Syrian, hamster, po, 15 mg/kg
REPORTED_METRIC: Tmax (min)
Give the value in min but do not write min after it.

Per the records, this molecule ( COc1cc2c(cc1OC)C1Cc3ccc(OC)c(OS(=O)(=O)c4cccc(F)c4)c3CN1CC2 (single isomer, unassigned) [Compound 162] ) has Tmax equal to 30

---

- EXPERIMENT: in vivo
- Set-up: species or system Golden Syrian hamsters
- CONDITIONS: male, Golden Syrian, hamster, po, 30 mg/kg
REPORTED_METRIC: MRT inf (h)
Give the value in h but do not write h after it.

Per the records, this compound ( COc1cc2c(cc1OC)C1Cc3ccc(OC)c(OS(=O)(=O)c4cccc(F)c4)c3CN1CC2 (single isomer, unassigned) ) has MRT inf equal to 5.17

---

- EXPERIMENT: in vivo
- Design: species or system Golden Syrian hamsters
- CONDITIONS: male, Golden Syrian, hamster, po, 30 mg/kg
REPORTED_METRIC: AUC(0-inf) (ng·h/mL)
Give the value in ng·h/mL but do not write ng·h/mL after it.

Per the records, this molecule ( COc1cc2c(cc1OC)C1Cc3ccc(OC)c(OS(=O)(=O)c4cccc(F)c4)c3CN1CC2 (single isomer, unassigned) ) has AUC(0-inf) equal to 2110

---

- EXPERIMENT: Pharmacokinetics of Compound 141 in male Wistar rats, intravenous and oral
- Type: in vivo
- CONDITIONS: Wistar, rat, plasma; male rats, PO (10 mg/kg), mean
Counter-ions that a name gives are not always drawn.
REPORTED_METRIC: Cmax (ng/mL)
Give the value in ng/mL but do not write ng/mL after it.

Per the records, this molecule ( COc1cc2c(cc1OC)C1Cc3ccc(OC)c(OS(=O)(=O)c4cccc(F)c4)c3CN1CC2 (racemic) [Compound 141, phosphate Salt] ) has Cmax equal to 826

---

- EXPERIMENT: Pharmacokinetics of Compound 141 in male Wistar rats, intravenous and oral
- Format: in vivo
- CONDITIONS: Wistar, rat, plasma; male rats, PO (10 mg/kg), mean
Counter-ions that a name gives are not always drawn.
REPORTED_METRIC: AUC(0-t) (ng·h/mL)
Give the value in ng·h/mL but do not write ng·h/mL after it.

Per the records, this compound ( COc1cc2c(cc1OC)C1Cc3ccc(OC)c(OS(=O)(=O)c4cccc(F)c4)c3CN1CC2 (racemic) [Compound 141, phosphate Salt] ) has AUC(0-t) equal to 3360

---

- EXPERIMENT: Pharmacokinetics of Compound 141 in male Wistar rats, intravenous and oral
- Type: in vivo
- CONDITIONS: Wistar, rat, plasma; male rats, PO (10 mg/kg), mean
Counter-ions that a name gives are not always drawn.
REPORTED_METRIC: AUC(0-inf)

Per the records, this compound ( COc1cc2c(cc1OC)C1Cc3ccc(OC)c(OS(=O)(=O)c4cccc(F)c4)c3CN1CC2 (racemic) [Compound 141, phosphate Salt] ) has AUC(0-inf) equal to 3380 ng·h/mL
